Reference source: BigSolDB 2.1

- stated conditions: in DMF, 296.35 K

{"molecule": "CC(=O)C1C(=O)C=C(C)OC1=O (stereo unspecified)", "solubility (mole fraction)": 0.093}

---

- stated conditions: in n-pentanol, 308.35 K

{"molecule": "CC(=O)C1C(=O)C=C(C)OC1=O (stereo unspecified)", "solubility (mole fraction)": 0.0189}

---

- stated conditions: in acetonitrile, 288.35 K

{"compound": "CC(=O)C1C(=O)C=C(C)OC1=O (stereo unspecified)", "solubility (mole fraction)": 0.039}

---

- stated conditions: in DMF, 292.45 K
experimental readout: solubility (mole fraction)

{"compound": "CC(=O)C1C(=O)C=C(C)OC1=O (stereo unspecified)", "endpoint value": 0.0857}
